Assay: Pharmacokinetics study after separate oral administration in rats (HPLC-MS of plasma)
Type: in vivo, Sprague-Dawley rats
Conditions: male, Sprague-Dawley, rat, plasma, po, 50 mg/kg, QG group (oral QG 50 mg/kg), rat plasma; labelled substance = analyte; individual rats No1-No5; read-out: MRT(0-t) (converted)
observed-property: MRT last (h)
Please state the figure in h; there is no need to write the unit.

input: Query: MRT last; subject: O=C(O)[C@H]1O[C@@H](Oc2c(-c3ccc(O)c(O)c3)oc3cc(O)cc(O)c3c2=O)[C@H](O)[C@@H](O)[C@@H]1O [QG, Quercetin-3-O-β-D-glucuronide]
output: 6.52

----------
Assay: Pharmacokinetics study after separate oral administration in rats (HPLC-MS of plasma)
Assay type: in vivo, Sprague-Dawley rats
Settings: male, Sprague-Dawley, rat, plasma, po, 50 mg/kg, IQ group: oral IQ 50 mg/kg, rat plasma, mean ± SD, n = 5; read-out: AUC0−t (converted)
observed-property: AUC(0-t) (ng·h/mL)
Please state the figure in ng·h/mL; there is no need to write the unit.

input: Query: AUC(0-t); subject: O=C(O)[C@H]1O[C@@H](Oc2c(-c3ccc(O)c(O)c3)oc3cc(O)cc(O)c3c2=O)[C@H](O)[C@@H](O)[C@@H]1O [QG, Quercetin-3-O-β-D-glucuronide]
output: 11200

input: Query: AUC(0-t); subject: O=c1c(O[C@@H]2O[C@H](CO)[C@@H](O)[C@H](O)[C@H]2O)c(-c2ccc(O)c(O)c2)oc2cc(O)cc(O)c12 [IQ, Isoquercitrin]
output: 287

input: Query: AUC(0-t); subject: O=c1c(O)c(-c2ccc(O)c(O)c2)oc2cc(O)cc(O)c12 [Qr, Quercetin]
output: 36900

----------
Field: CL/F. Provide a value for each of the compounds that follow.
Assay: Pharmacokinetics study after separate oral administration in rats (HPLC-MS of plasma)
Assay type: in vivo, Sprague-Dawley rats
Settings: male, Sprague-Dawley, rat, plasma, po, 50 mg/kg, QG group (oral QG 50 mg/kg), rat plasma; labelled substance = analyte; mean of 5 rats; read-out: CLz/F
Please answer in the form of a number followed by its unit of measurement.

input: Query: CL/F; subject: O=c1c(O)c(-c2ccc(O)c(O)c2)oc2cc(O)cc(O)c12
output: 14 mL/min/kg

input: Query: CL/F; subject: O=C(O)[C@H]1O[C@@H](Oc2c(-c3ccc(O)c(O)c3)oc3cc(O)cc(O)c3c2=O)[C@H](O)[C@@H](O)[C@@H]1O [QG, Quercetin-3-O-β-D-glucuronide]
output: 71 mL/min/kg

----------
Assay: Pharmacokinetics study after separate oral administration in rats (HPLC-MS of plasma)
Assay type: in vivo, Sprague-Dawley rats
Details: male, Sprague-Dawley, rat, plasma, oral, 50 mg/kg, QG group (oral QG 50 mg/kg), 30 min, individual rats NO. 1-5; read-out: Plasma concentrations
observed-property: concentration at 30 min (ng/mL)
Please state the figure in ng/mL; there is no need to write the unit.

input: Query: concentration at 30 min; subject: O=c1c(O)c(-c2ccc(O)c(O)c2)oc2cc(O)cc(O)c12
output: 0

----------
Test: Pharmacokinetics study after separate oral administration in rats (HPLC-MS of plasma)
Type: in vivo, Sprague-Dawley rats
Conditions: male, Sprague-Dawley, rat, plasma, po, 50 mg/kg, QG group: oral QG 50 mg/kg, rat plasma, mean ± SD, n = 5; read-out: MRT0−t (converted)
observed-property: MRT last (h)
Please state the figure in h; there is no need to write the unit.

input: Query: MRT last; subject: O=C(O)[C@H]1O[C@@H](Oc2c(-c3ccc(O)c(O)c3)oc3cc(O)cc(O)c3c2=O)[C@H](O)[C@@H](O)[C@@H]1O [QG, Quercetin-3-O-β-D-glucuronide]
output: 7.3
